Test system: Escherichia coli TOP10;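 further: peptides expressed intracellularly from a pBAD plasmid library in pooled LB shake-flask culture, induced with 0.3% L-arabinose, DNA abundance read by NGS, three biological replicates, DESeq2 with apeglm shrinkage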
experiment.summary: shrunken log2 fold change of peptide-encoding DNA abundance (4.5 h post-induction vs induction); higher = less antimicrobial activity (less host growth inhibition)
study.conditions: time post-induction: 4.5 h; library: site-saturation at positions 5, 18, 19, 20
Output: class label from shrunken log2 fold change. Mapping: class A: < -0.2; class B: ≥ -0.2 and < 0.02; class C: ≥ 0.02

For orientation, consider the following solved cases.
RRIRYRPPRLPRPRPRPWPTPRP: class A
RRIRSRPPRLPRPRPRPHCQPRP: class B
RRIRQRPPRLPRPRPRPIKEPRP: class B

### Prompt Pick a category. Item: `RRIRQRPPRLPRPRPRPNYNPRP`
### Response class B

### Prompt Each sequence maps to one class by shrunken log2 fold change. Which class for `RRIRQRPPRLPRPRPRPNGDPRP` ?
### Response class B

### Prompt Categorize the following entry: `RRIRVRPPRLPRPRPRPIGEPRP`
### Response class C

### Prompt Which category fits this record: `RRIRQRPPRLPRPRPRPQSVPRP`
### Response class B

### Prompt Field: class (shrunken log2 fold change) — entry: `RRIRHRPPRLPRPRPRPRMMPRP`
### Response class B

### Prompt Consider `RRIRKRPPRLPRPRPRPTTLPRP` . To which shrunken log2 fold change class does it belong?
### Response class B

### Prompt Please let me know in which category the item `RRIRMRPPRLPRPRPRPYGLPRP` belongs.
### Response class A

### Prompt Form field 'band' for `RRIRTRPPRLPRPRPRPYWEPRP`
### Response class B

### Prompt Band for `RRIRMRPPRLPRPRPRPMPMPRP` ?
### Response class C

### Prompt For `RRIRQRPPRLPRPRPRPSRPPRP` , which shrunken log2 fold change bin applies?
### Response class C

### Prompt Sort `RRIRTRPPRLPRPRPRPLNFPRP` into one of the categories.
### Response class A

### Prompt Determine which band this sequence sits in: `RRIRPRPPRLPRPRPRPHQGPRP`
### Response class A

### Prompt Kindly identify the class of `RRIRERPPRLPRPRPRPHIPPRP` .
### Response class A
